Tested on: M14 melanoma
experimental.details: NCI tumour cell line growth inhibition, 48 h
Catalogue of TGI values
# output: bare number, implied unit µM

// known answers, use as guide
                                   molecule  reported
0  Nc1nc(Sc2ccc([N+](=O)[O-])cn2)c2[nH]cnc2n1      24.1
1  O=C1C(Cl)C(c2cccc(Br)c2)N1c1c(O)c(Cl)cc(Br)c1Cl (stereo not given)      27.1

Enquiry: Annotate the molecule `CC#CC(=O)N[C@H]1CCCN(c2c(F)cc(C(N)=O)c3[nH]c(C)c(C)c23)C1` with its measured TGI.
Return: 42

###

System: UACC-257 melanoma
experimental.details: NCI tumour cell line growth inhibition, 48 h
measurement.name: GI50

In [3]: df
Out[3]:
                            compound_smiles  measurement_name  reported
0   O=c1cc(-c2ccccc2)nc2cc(-c3ccco3)[nH]n12              GI50   17.3 µM
1  COc1cc([N+](=O)[O-])c(OC)cc1-c1nc2n(c1/C(N)=N/C(=N)N)CCS2              GI50   15.9 µM
2  O=C1CCCC(=O)C1C(=O)c1ccc(C(F)(F)F)cc1[N+](=O)[O-]              GI50  > 100 µM
3  CNC(=O)c1c(NC(=O)c2ccc(C(C)C)cc2)sc2c1CCC(=O)C2              GI50   2.05 µM
4  c1ccc(C2=NN[C@H](c3cn(-c4ccccc4)nc3-c3ccccc3)C2)cc1              GI50  > 100 µM
5             CC(C)NCCCCCNc1cc(O)cc2cccnc12              GI50   17.7 µM
6                   [O]=[W](=[O])([OH])[OH]              GI50  > 100 µM

Let us move to another entry and its GI50.
Enquiry: Annotate the compound `COc1cc(C2C(C(=O)OCc3ccccc3)=C(C)NC(C)=C2C(=O)OCc2ccccc2)cc(OC)c1OC` with its measured GI50.
Return: 3.82 µM

###

Catalogue of TGI values
Tested on: RXF 393 renal
experimental.details: NCI tumour cell line growth inhibition, 48 h

In [3]: df
Out[3]:
                                   molecule  measurement_name  reported
0  CCOC(=O)NN(C(=O)OCC)C(C(=O)c1ccc(Cl)cc1)=C1NCCN1               TGI  > 100 µM
1            O=c1nc(-c2ccccc2)scc1-c1ccccc1               TGI  > 100 µM

Enquiry: Annotate the molecule `CO[C@]12CCC(=O)N1C=Cc1c2[nH]c2ccccc12` with its measured TGI.
Return: > 100 µM

Enquiry: Annotate the molecule `O=c1cc(-c2ccccc2)nc2cc(-c3ccco3)[nH]n12` with its measured TGI.
Return: > 100 µM

Enquiry: Annotate the molecule Cc1ccc(C(CC(=O)c2ccccc2)C(C(=O)c2ccccc2)C(c2ccc(C)cc2)C2C(=O)NC(=S)NC2=O)cc1 (stereo not given) with its measured TGI.
Return: > 50 µM

###

System: KM20L2 colon
experimental.details: NCI tumour cell line growth inhibition, 48 h
measurement.name: TGI

// known answers, use as guide
>>> df
                                   compound  target_of_assay  measurement_name  reported
0            N#CC(C#N)=Cc1ccc(Oc2ccccc2)cc1     KM20L2 colon               TGI  > 100 µM
1  CCOc1ccc(N=Nc2c(-c3ccccc3)nn(C(=O)CC(=O)Nc3cccc(C)c3)c2-c2ccccc2)cc1     KM20L2 colon               TGI  > 100 µM
2  CC1OC(n2cc(I)c(=O)[nH]c2=O)C=CC1=O (centres undefined)     KM20L2 colon               TGI     31 µM
3  Nc1ccn(CC(CO)CC(c2ccccc2)P(=O)(O)O)c(=O)n1 (centres undefined)     KM20L2 colon               TGI  > 100 µM
4  C/C=C/C=C\C(=O)C1c2cccc(O)c2C(=O)c2c(O)cc(C)cc21 (centres undefined)     KM20L2 colon               TGI   3.94 µM

Enquiry: Annotate the compound CCC[CH2][Ge]([CH2]CCC)([CH2]CCC)[O]C(=O)C(OC(C)=O)c1ccccc1 (centres undefined) with its measured TGI.
Return: 15.2 µM

Enquiry: Annotate the compound NC(N)=NCCCC(NCc1c2ccccc2[n+]([O-])c2ccccc12)C(=O)O (centres undefined) with its measured TGI.
Return: > 100 µM

Enquiry: Annotate the compound COc1cc2c(cc1OC)C1(c3ccccc3)ON=C(c3ccccc3)N1CS2 (centres undefined) with its measured TGI.
Return: > 100 µM

Enquiry: Annotate the compound COc1cc2c3c(c1OCc1ccccc1)NCCC3NCC2 (centres undefined) with its measured TGI.
Return: > 100 µM
